molecular target: mouse alpha 2B receptor (m α2B) (Mus musculus); construct: expressed in transfected cells; experiment: FLIPR calcium flux assay in HEK 293 m α2B/Gqi5 cells (Fluo-4 dye); format: cell-based; settings: Room Temp.; FIG. 4A
measurement_name: pEC50
When answering, recall that pEC50 equals minus log10 of the concentration in mol/L, and write that number alone.

Look up pEC50: c1ncc(CC2CCC3=C(CCCC3)C2)[nH]1 (centres unmarked)
6.52

----------
// reported pEC50 for each item listed
target: mouse alpha 2B receptor (m α2B) (Mus musculus, UniProt P30545); construct: expressed in transfected cells; assay: FLIPR calcium flux assay in HEK 293 m α2B/Gqi5 cells (Fluo-4 dye); assay type: cell-based; settings: 37° C.; FIG. 4D
Sequence (P30545 whole entry): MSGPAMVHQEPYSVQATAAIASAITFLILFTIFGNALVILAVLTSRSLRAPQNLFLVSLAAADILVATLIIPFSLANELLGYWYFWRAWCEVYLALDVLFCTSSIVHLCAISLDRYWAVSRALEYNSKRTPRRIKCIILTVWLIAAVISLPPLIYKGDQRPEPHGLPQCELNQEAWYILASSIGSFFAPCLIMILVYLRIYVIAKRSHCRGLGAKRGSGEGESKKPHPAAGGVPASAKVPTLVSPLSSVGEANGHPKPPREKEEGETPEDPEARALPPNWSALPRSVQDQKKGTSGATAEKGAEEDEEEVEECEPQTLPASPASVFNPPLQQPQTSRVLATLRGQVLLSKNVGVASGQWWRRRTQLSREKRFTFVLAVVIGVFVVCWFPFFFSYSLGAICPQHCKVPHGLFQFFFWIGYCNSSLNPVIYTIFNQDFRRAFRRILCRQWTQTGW
When answering, recall that pEC50 equals minus log10 of the concentration in mol/L, and write that number alone.

c1ncc(CC2CCC3=C(CCCC3)C2)[nH]1 (centres unmarked)
7.17

Switching to the query record.
Look up pEC50: OCCNC(=S)NCc1cccc(Cl)c1F
7.19

----------
target: mouse alpha 2B receptor (m α2B) (Mus musculus); construct: expressed in transfected cells; test: FLIPR calcium flux assay in HEK 293 m α2B/Gqi5 cells (Fluo-4 dye); type: cell-based; settings: 35° C.; FIG. 4C
// reported EC50 for each item listed
Express the result in µM but write the number alone.

c1ncc(CC2CCC3=C(CCCC3)C2)[nH]1 (centres unmarked) [Compound 1]
0.321

Switching to the query record.
Look up EC50: OCCNC(=S)NCc1cccc(Cl)c1F [Compound 2]
0.318
